# Tested on: HiBiT-tagged HTT protein
# procedureSummary: HiBiT protein abundance assay, HTT (K562 HiBiT knock-in cells)
# Type: cell-based, human
# settings: 24 hours
Counter-ions that a name gives are not always drawn.
Each entry below carries its recorded IC50.

For orientation, consider the following solved cases.
Cc1cn2cc(NC(=O)c3ccc(N4CCNCC4)c4ccnnc34)cc(F)c2n1 [Compound 101] : 0.1 to 1 µM
C[C@@H]1CN(c2ccc(C(=O)Nc3cc(F)c4cnccc4c3)c3nccnc23)C[C@H](C)N1 [Compound 343] : 1 to 10 µM
Cc1cn2cc(NC(=O)c3ccc(N4C[C@@H](C)N[C@@H](C)C4)c4ncc(Cl)nc34)cc(F)c2n1 [Compound 281] : 1 to 10 µM
Cc1cnc2c(C(=O)Nc3cc(F)c4nc(C)cn4c3)ccc(N3C[C@@H](C)N[C@@H](C)C3)c2n1 [Compound 217] : 0.1 to 1 µM
COc1ncc2c(N3C[C@@H](C)N[C@@H](C)C3)ccc(C(=O)Nc3cn4cc(C)nc4c(OC)n3)c2n1 [Compound 378] : 0.1 to 1 µM

What value of measured IC50 is listed for CNC1CCN(c2ccc(C(=O)Nc3cc(F)c4nc(C)cn4c3)c3nc(OC)cnc23)C1 (stereo not drawn) [Compound 202, bis(trifluoroacetic acid)] ?
1 to 10 µM

Would you kindly repeat that for CN[C@H]1CCN(c2ccc(C(=O)Nc3cc(F)c4nc(C)cn4c3)c3nnccc23)C1 [Compound 239] ?
0.1 to 1 µM

Would you kindly repeat that for COc1cc(NC(=O)c2ccc(N3CCNCC3)c3ccnnc23)cn2cc(C)nc12 [Compound 176, trifluoroacetate] ?
1 to 10 µM

Would you kindly repeat that for Cc1cn2cc(NC(=O)c3ccc(N4C[C@@H](C)N[C@@H](C)C4)c4ncccc34)cc(F)c2n1 [Compound 358] ?
> 10 µM

Would you kindly repeat that for CCNC1CCN(c2ccc(C(=O)Nc3cc(F)c4nc(C)cn4c3)c3nc(OCCOC)ccc23)CC1 [Compound 233] ?
1 to 10 µM

Would you kindly repeat that for Cc1cn2cc(NC(=O)c3ccc(N4CCN5CCOC[C@@H]5C4)c4nccnc34)cc(F)c2n1 [Compound 255] ?
0.1 to 1 µM

Would you kindly repeat that for COCCOc1ccc2c(N3C[C@@H](C)N[C@@H](C)C3)ccc(C(=O)Nc3cc(F)c4nc(C)cn4c3)c2n1 [Compound 232] ?
1 to 10 µM

----------
# Test system: MYB mRNA
# procedureSummary: Splicing RT-qPCR assay, MYB canonical (CJ) and alternative (AJ) junction mRNA
# Assay type: cell-based
# settings: Homo sapiens, decrease in canonical junction mRNA, A673 or K562 cells, 24 hours
# Experimental: Compounds described herein were used to modulate RNA transcript abundance in cells. The expression of a target mRNA was measured by detecting the formation of an exon-exon junction in the canonical transcript (CJ). A compound mediated exon-inclusion event was detected by observing an increase in formation of a new junction with an alternative exon (AJ). Real-time qPCR assays were used to detect these splicing switches and interrogate the potency of various compounds towards different target genes. […]
pIC50: −log10 of the molar value.
assayMetric: pIC50

For orientation, consider the following solved cases.
COc1cc2c(N3CCNCC3)ccc(C(=O)Nc3cc(F)c4nc(C)cn4c3)c2nn1 : > 7.00
Cc1cn2cc(NC(=O)c3ccc(N4CC5(CNC5)C4)c4ccnnc34)cc(F)c2n1 : 6.00 to 7.00
Cc1cn2cc(NC(=O)c3ccc(N4CCN(C)[C@H](C)C4)c4ccnnc34)cc(F)c2n1 : > 7.00
Cc1cn2cc(NC(=O)c3ccc(N4CCN[C@@H](C5CC5)C4)c4nccnc34)cc(F)c2n1 : 6.00 to 7.00

Now examine the next entry.
What value of measured pIC50 is listed for Cc1cc2c(N3CCNCC3)ccc(C(=O)Nc3cc(F)c4nc(C)cn4c3)c2nn1 ?
> 7.00
